Attribution: ChEMBL document CHEMBL1201862

Item-by-item account of GI50
System: LOX IMVI
Assay: NCI tumour cell line growth inhibition, 48 h
The source made the active and inactive calls. No stated cut-off is given here; in the data, active = GI50 up to about 1.1 µM and inactive = higher.

| compound | measured target | GI50 |
| --- | --- | --- |
| Cc1ccc(NCc2nnc3c(-c4ccccc4)nc4ccccc4n23)cc1 | LOX IMVI | 23.5 µM (inactive) |
| C=C1CC2[C@H](C)C(=O)CCC2(C)C2=C1C1CCC(C(C)CCC(=C)C(C)C(=O)O)C1(C)CC2=O (some centres undefined) | LOX IMVI | 17.9 µM (inactive) |
| CCOC(=O)c1cn2c(n1)sc1cc(C)c(C)cc12 | LOX IMVI | 29.1 µM (inactive) |
| CCOC(=O)c1nc2cc(C(F)(F)F)ccc2nc1Nc1ccc(C(=O)NC(C(=O)OCC)C(=O)OCC)cc1 | LOX IMVI | 54.2 µM (inactive) |
| CCCCOc1ccc(S(=O)(=O)N/C(=N\O)Nc2ccc(Cl)cc2)cc1 | LOX IMVI | 16 µM (inactive) |
| COC(=O)CSc1nnc(-c2ccc(O)c([N+](=O)[O-])c2)[nH]1 | LOX IMVI | > 100 µM (inactive) |
| O=C(O)C1CCCCC1c1c2ccc(=O)c(O)c-2oc2c(O)c(O)ccc12 (centres undefined) | LOX IMVI | 13.8 µM (inactive) |
| C1=Cc2nc1c(-c1ccccc1)c1nc(c(-c3ccccc3)c3ccc([nH]3)c(-c3ccccc3)c3ccc([nH]3)c2-c2ccccc2)C=C1 | LOX IMVI | > 100 µM (inactive) |
| CCOc1cc2c(cc1O)/C(=N\O)C[C@@H]1[C@@H]2CC[C@]2(C)[C@@H](O)CC[C@@H]12 | LOX IMVI | < 0.0363 µM (active) |
| O=C1Nc2ccccc2N/C1=C\C(=O)C(F)F | LOX IMVI | > 100 µM (inactive) |
| CC(=O)Nc1nc(NC(C)=O)c2nc(CO)[nH]c2n1 | LOX IMVI | > 100 µM (inactive) |
| Cc1ccc(-c2cc[n+]3c(n2)oc2ccccc23)cc1 | LOX IMVI | 35.7 µM (inactive) |
| CN1CCN(CCCCN2c3ccccc3Sc3ccc(C(=O)c4ccccc4)cc32)CC1 | LOX IMVI | 1.46 µM (inactive) |
| COc1ccc(/C=C/C(=O)c2cc(OC)cc(OC)c2)cc1 | LOX IMVI | 1.35 µM (inactive) |
| O=C1CN(c2ccccc2)Cc2nc(Cl)ccc2N1 | LOX IMVI | > 100 µM (inactive) |
| N#CC(c1ccccc1)N(CCOCCOCCN(C(=O)c1cccc2ccccc12)C(C#N)c1ccccc1)C(=O)c1cccc2ccccc12 (centres undefined) | LOX IMVI | > 100 µM (inactive) |
| SC1CCCN(Cc2ccccc2)C1 (centres undefined) | LOX IMVI | 16.5 µM (inactive) |
| C[C@]12CC[C@H]3[C@@H](CC=C4C[C@@H](O)CC[C@@]43C)[C@@H]1C[C@H](N1CCOCC1)[C@@H]2O | LOX IMVI | > 100 µM (inactive) |
| O=c1cc(-c2ccccc2)oc2cc(OCCSCCCCCCCCCCSCCOc3ccc4c(=O)cc(-c5ccccc5)oc4c3)ccc12 | LOX IMVI | > 100 µM (inactive) |
| Cc1nn(C(=O)c2ccncc2)c2c1C(c1ccccc1)SC(=N)N2 (centres undefined) | LOX IMVI | > 10 µM (inactive) |
| COC1=C(Cl)C(=O)c2c(O)ccc(O)c2C1=O | LOX IMVI | 1.38 µM (inactive) |
| Cc1ccc(-c2n[nH]c(=O)n2/N=C\c2ccc([N+](=O)[O-])cc2)cc1 | LOX IMVI | > 100 µM (inactive) |
| CCCCCC(=O)Cc1cc(OC)cc2c1C(=O)Oc1cc(O)c(C(=O)O)c(CC(=O)CCCCC)c1O2 | LOX IMVI | 77.8 µM (inactive) |
| CCOC(=O)C(C)(C(=O)OCC)/C(Cl)=C\Cl | LOX IMVI | > 100 µM (inactive) |

###

System: ACHN
Assay: NCI tumour cell line growth inhibition, 48 h
Calls of active or inactive are those of the source. No stated cut-off is given here; in the data, active = GI50 up to about 1.1 µM and inactive = higher. Positions of bridges follow the written chain, without caps; N, C: chain ends. Non-standard residues stand in square brackets, D forms with d. Residues, ends and D or L forms follow the SMILES beside them. ξ: configuration not given here. *: point of attachment. X28 = O=C(/C=C/C=C/C=C/C=C/C=C/C(=O)*)NC1=C(O)CCC1=O; Pro(4R-Me) = C[C@H]1CN[C@H](C(=O)O)C1; NMeA = CN[C@@H](C)C(=O)O; ξF = NC(Cc1ccccc1)C(=O)O; ξA = CC(N)C(=O)O

| compound | measured target | GI50 |
| --- | --- | --- |
| CC(=O)Nc1nc(NC(C)=O)c2nc(CO)[nH]c2n1 | ACHN | > 100 µM (inactive) |
| O=C1CC2CCN(C(=O)c3ccccc3)CC2CCN1 (centres undefined) | ACHN | > 100 µM (inactive) |
| COC(=O)CCC(=O)NC1=C(NCc2ccccc2)C(=O)c2ccccc2C1=O | ACHN | 27.4 µM (inactive) |
| CC1NC(=O)[C@H](C)N(C)C(=O)[C@@H]2CCCN2C(=O)[C@@H](NC(=O)C(Cc2ccccc2)NC(=O)/C=C/C=C/C=C/C=C/C=C/C(=O)NC2=C(O)CCC2=O)COC(=O)[C@@H]2C[C@@H](C)CN2C1=O (stereo partly drawn) (X28-[ξF]SP[NMeA][ξA][Pro(4R-Me)]; ester 2-C) | ACHN | > 100 µM (inactive) |

###

Item-by-item account of GI50
Test system: U-251
Test: NCI tumour cell line growth inhibition, 48 h
The source made the active and inactive calls. Rule as the data show it: active = GI50 up to about 1.1 µM and inactive = higher.
measure: GI50

| molecule | measured result |
| --- | --- |
| O=[N+]([O-])c1ccc(Cl)cc1C1SCc2nc3ccccc3n21 (centres undefined) | 40.4 µM (inactive) |
| NC1CCC(c2cc3ccccc3s2)(N2CCCCC2)CC1 (centres undefined) | 1.53 µM (inactive) |
| Brc1ccc2c(-c3csc(-c4c[nH]c5ccccc45)n3)c[nH]c2c1 | 17.9 µM (inactive) |
| NC(=S)Nc1c(S(N)(=O)=O)cc(S(N)(=O)=O)c(Cl)c1Cl | > 100 µM (inactive) |
| C/C(=C\CNc1ncnc2c1ncn2C1CCCCO1)COP(=O)(O)O (centres undefined) | > 100 µM (inactive) |
| O=C1C=CC(=O)C(N(CCO)CCO)=C1.O=C1C=CC2(O)OCCN(CCO)C2=C1 | > 100 µM (inactive) |
| Cc1ccc(NCc2nnc3c(-c4ccccc4)nc4ccccc4n23)cc1 | 16.7 µM (inactive) |
| CC(/C=C/c1ccccc1)=N\NC(N)=S | 40.5 µM (inactive) |
| COc1ccc(OC)c2[s+]snc12 | 28 µM (inactive) |

###

System: SK-MEL-5
Assay: NCI tumour cell line growth inhibition, 48 h
Calls of active or inactive are those of the source. Rule as the data show it: active = GI50 up to about 1.1 µM and inactive = higher.
Item-by-item account of GI50
measure: GI50

| compound | measure | measured result |
| --- | --- | --- |
| OC(CCNCc1ccccc1)c1ccc2ccccc2c1 (stereo not given) | GI50 | 17.2 µM (inactive) |
| CN(C)CCNC(=O)c1cccc2nc3c(C(=O)NCCN(C)C)cccc3nc12 | GI50 | 1.56 µM (inactive) |
| C=C=C(CC)C(C(=O)OC)N(CC)CC (stereo not given) | GI50 | > 100 µM (inactive) |
| O=C1[C@@H]2C(c3ccncc3)=NO[C@@H]2C(=O)N1c1ccc(Cc2ccc(N3C(=O)[C@H]4C(c5ccncc5)=NO[C@H]4C3=O)cc2)cc1 | GI50 | > 100 µM (inactive) |
| CN(C)CCC(=O)N1C/C(=C/c2ccccc2)C(=O)/C(=C\c2ccccc2)C1 | GI50 | 1.45 µM (inactive) |
| COc1ccc(S(=O)(=O)Nc2ccc(-c3csc(N4C(=O)/C(=C/c5cccs5)N=C4c4ccccc4)n3)cc2)cc1Cl | GI50 | 40.8 µM (inactive) |
| O=C(CC1=Nc2nnc(CCCCCCCc3nnc4n3C(=O)C(CC(=O)c3ccccc3)=N4)n2C1=O)c1ccccc1 | GI50 | > 100 µM (inactive) |
| O=C(O)c1cc(=O)c2c(OCC(O)COc3cccc4oc(C(=O)O)cc(=O)c34)cccc2o1 | GI50 | > 65.9 µM (inactive) |
| O=C1CSC(=S)N1/N=C/c1ccc(Cl)c([N+](=O)[O-])c1 | GI50 | 53.6 µM (inactive) |
| O=C(NCC(=O)N1CCOC1=O)OCc1ccccc1 | GI50 | > 100 µM (inactive) |
| Brc1ccc2c(-c3csc(-c4c[nH]c5ccccc45)n3)c[nH]c2c1 | GI50 | 15.3 µM (inactive) |
| CC(C)=CCC/C(=C\CC/C(=C\CCc1ccoc1)C(=O)O)C(=O)O | GI50 | > 100 µM (inactive) |
| COC(=O)N/N=C(\C)C(CN1CCCCC1)C(C1=C(O)c2ccccc2OC1)c1ccccc1 (stereo not given) | GI50 | > 100 µM (inactive) |
| CC(/C=C/c1ccccc1)=N\NC(N)=S | GI50 | 38.5 µM (inactive) |
| CN/C(=N\N)NS(=O)(=O)c1cc(C)c(Cl)cc1S | GI50 | 30.7 µM (inactive) |
| COc1ccc(NC2=NCCO2)c2c1CCCC2 | GI50 | 17.5 µM (inactive) |
| Oc1ccccc1/C=N/c1ccc(-c2nc3ccccc3[nH]2)cc1 | GI50 | 27.8 µM (inactive) |
| CCC(=C/[C@H](C)C/C=C/C(C)=C/[C@@H](C)C(=O)[C@@H](C)[C@H](O)[C@@H](C)CC)/C=C/[C@H]1CC=CC(=O)O1 | GI50 | < 0.0012 µM (active) |
| Cc1ccc(NC(=O)CSc2nnc(-c3ccc(/N=C\c4ccc(Cl)cc4)cc3)o2)cc1 | GI50 | > 100 µM (inactive) |
| CCOc1cc2c(cc1O)/C(=N\O)C[C@@H]1[C@@H]2CC[C@]2(C)[C@@H](O)CC[C@@H]12 | GI50 | 0.01 µM (active) |
| N#C/C(=C1\N=C(c2ccccc2O)Oc2ccccc21)c1ccc([N+](=O)[O-])cc1 | GI50 | > 100 µM (inactive) |
| COc1cc([N+](=O)[O-])ccc1N1C(=O)C2c3[nH]c4ccccc4c3C3CCC(C(C)(C)C)CC3C2C1=O (stereo not given) | GI50 | 40.9 µM (inactive) |
| O=C(O)c1oc2cccc3c2c1CCC3 | GI50 | > 100 µM (inactive) |
| CC(C)=Cc1cc(C)c2c(O)cc(C)c3c2c1C(C)=C(O)C3=O | GI50 | 17.1 µM (inactive) |
| COc1ccc(N[S+]([O-])c2cccc(C)c2)cc1 (stereo not given) | GI50 | 25.6 µM (inactive) |
| Oc1nc2ccccc2c2oc3ccccc3c12 | GI50 | > 100 µM (inactive) |
| CC(C)(C)C1=CC(=C2C=Cc3ccccc3O2)C=C(C(C)(C)C)C1=O | GI50 | 3.81 µM (inactive) |
| CCN(CC)CCNc1ccc2nnn3c4ccccc4c(=O)c1c23 | GI50 | 3.08 µM (inactive) |
| N#Cc1c(-c2ccc([N+](=O)[O-])cc2)c(C#N)c(=O)n(NS(=O)(=O)c2ccccc2)c1-c1ccccc1 | GI50 | > 100 µM (inactive) |
| CCc1cn2c(/C=N/N=C(N)N)c(-c3cc(C)c(Cl)cc3Cl)nc2s1 | GI50 | 1.63 µM (inactive) |
| CC(C)OP(=S)(NC(=S)c1ccccc1)OC(C)C | GI50 | 42.9 µM (inactive) |
| O=C1CC(c2ccc(Cl)cc2)C2(C(=O)NC(=O)NC2=O)C(c2ccc(Cl)cc2)C1 (stereo not given) | GI50 | 14.5 µM (inactive) |
| CC1(C)C[C@H]2[C@H](O)C(CO)=C3C(=O)[C@@H](O)[C@]3(C)[C@H]2C1 | GI50 | > 100 µM (inactive) |
| CC(C)/C=C1\CCC(CN(C)C)C1=O (stereo not given) | GI50 | 4.97 µM (inactive) |
| COc1ccc(OC)c2[s+]snc12 | GI50 | 19 µM (inactive) |
